- run-description: pharmacokinetics after single intravenous injection
- run-conditions: mouse, in vivo, iv, 10 mg/kg
Where a SMILES comes first, the peptide text is derived from it. [ ]: non-standard residue; d: D form. The star is where a group is joined. Cbz = O=C(OCc1ccccc1)*
result-type: AUC (ng·h/mL)
Answer with a number only, understood to be in ng·h/mL.

Problem: What AUC value was documented for this compound, CC(=O)N[C@H](Cc1ccc(O)cc1)C(=O)N[C@H](CCCNC(=N)N)C(=O)N[C@H](Cc1ccccc1)C(N)=O [DTP3, Ac-YRF-NH2] ?
Result: 6430

Problem: What AUC value was documented for this compound, N=C(N)NCCC[C@@H](NC(=O)[C@@H](CCC(=O)O)NC(=O)[C@@H](Cc1ccc(O)cc1)NC(=O)OCc1ccccc1)C(=O)N[C@H](Cc1ccccc1)C(N)=O [z-DTP2, z-YERF-NH2] (Cbz-[dY][dE][dR][dF]-NH2) ?
Result: 2060

---

- measured-on: GADD45β/MKK7 complex (Homo sapiens, UniProt O14733)
- Construct: Full-length human (h)MKK7 was expressed as a protein fused to an N-terminal GST tag (GST-MKK7); made in house
- Sequence (O14733 whole entry, the tested form may be a part, one chain of several): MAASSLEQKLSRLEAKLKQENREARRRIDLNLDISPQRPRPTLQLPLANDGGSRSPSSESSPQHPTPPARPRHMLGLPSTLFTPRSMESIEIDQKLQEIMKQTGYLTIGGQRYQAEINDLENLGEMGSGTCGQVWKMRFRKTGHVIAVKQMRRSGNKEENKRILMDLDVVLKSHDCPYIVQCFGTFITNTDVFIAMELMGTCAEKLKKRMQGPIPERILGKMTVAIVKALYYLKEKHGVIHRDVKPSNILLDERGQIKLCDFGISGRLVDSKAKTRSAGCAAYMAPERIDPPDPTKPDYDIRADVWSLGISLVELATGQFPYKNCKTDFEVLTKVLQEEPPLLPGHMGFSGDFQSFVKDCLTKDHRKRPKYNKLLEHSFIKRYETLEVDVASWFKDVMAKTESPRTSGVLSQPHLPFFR
- run-description: ELISA GADD45β/MKK7 competition assay
- Assay type: binding
- run-conditions: Table S3; peptide at 10 nM; read-out: % inhibition (ELISA)
Where a SMILES comes first, the peptide text is derived from it. [ ]: non-standard residue; d: D form. The star is where a group is joined. ClZ = O=C(OCc1ccccc1Cl)*; Cbz = O=C(OCc1ccccc1)*
result-type: inhibition at 0.01 µM (%)
Answer with a number only, understood to be in %.

Problem: What inhibition at 0.01 µM value was documented for this compound, NC(=O)CC[C@@H](NC(=O)[C@@H](Cc1c[nH]cn1)NC(=O)[C@@H](CC(=O)O)NC(=O)[C@@H](Cc1ccc(O)cc1)NC(=O)OCc1ccccc1Cl)C(N)=O [2CI-z-YDHQ-NH2] (ClZ-[dY][dD][dH][dQ]-NH2) ?
Result: 40

Problem: What inhibition at 0.01 µM value was documented for this compound, CCCCCCCCCCCCCC(=O)N[C@H](Cc1ccc(O)cc1)C(=O)N[C@H](CC(=O)O)C(=O)N[C@H](Cc1c[nH]cn1)C(=O)N[C@H](Cc1ccccc1)C(N)=O ?
Result: 26

Problem: What inhibition at 0.01 µM value was documented for this compound, CC(=O)N[C@H](Cc1ccc(O)cc1)C(=O)N[C@H](CC(=O)O)C(=O)N[C@H](Cc1c[nH]cn1)C(=O)N[C@H](Cc1ccccc1)C(=O)N[C@H](CCCCNC(=O)OCc1ccccc1)C(N)=O [Ac-YDHFK(εZ)-NH2] (Ac-[dY][dD][dH][dF][dK](Cbz)-NH2) ?
Result: 8

Problem: What inhibition at 0.01 µM value was documented for this compound, CCCCCCCCCCCCCC(=O)N[C@H](Cc1ccc(O)cc1)C(=O)N[C@H](CC(=O)O)C(=O)N[C@H](Cc1c[nH]cn1)C(=O)N[C@H](CCC(N)=O)C(N)=O ?
Result: 28

Problem: What inhibition at 0.01 µM value was documented for this compound, N=C(N)NCCC[C@@H](NC(=O)[C@@H](CCC(=O)O)NC(=O)[C@@H](Cc1ccc(O)cc1)NC(=O)OCc1ccccc1Cl)C(=O)N[C@H](Cc1ccccc1)C(N)=O [2CI-z-YERF-NH2] (ClZ-[dY][dE][dR][dF]-NH2) ?
Result: 38

Problem: What inhibition at 0.01 µM value was documented for this compound, CCCCCCCCCCCCCC(=O)N[C@H](Cc1ccc(O)cc1)C(=O)N[C@H](CCC(=O)O)C(=O)N[C@H](CCCNC(=N)N)C(=O)N[C@H](Cc1ccccc1)C(N)=O ?
Result: 37

Problem: What inhibition at 0.01 µM value was documented for this compound, NC(=O)[C@@H](Cc1ccccc1)NC(=O)[C@@H](Cc1c[nH]cn1)NC(=O)[C@@H](CC(=O)O)NC(=O)[C@@H](Cc1ccc(O)cc1)NC(=O)OCC1c2ccccc2-c2ccccc21 ?
Result: 58

Problem: What inhibition at 0.01 µM value was documented for this compound, N=C(N)NCCC[C@@H](NC(=O)[C@@H](CCC(=O)O)NC(=O)[C@@H](Cc1ccc(O)cc1)NC(=O)OCc1ccccc1)C(=O)N[C@H](Cc1ccccc1)C(N)=O [z-DTP2, z-YERF-NH2] (Cbz-[dY][dE][dR][dF]-NH2) ?
Result: 95

Problem: What inhibition at 0.01 µM value was documented for this compound, NC(=O)[C@@H](Cc1ccccc1)NC(=O)[C@@H](Cc1c[nH]cn1)NC(=O)[C@@H](CC(=O)O)NC(=O)[C@@H](Cc1ccc(O)cc1)NC(=O)OCc1ccccc1Cl [2CI-z-YDHF-NH2] (ClZ-[dY][dD][dH][dF]-NH2) ?
Result: 38

---

- measured-on: GADD45β/MKK7 complex (Homo sapiens)
- Construct: Full-length human (h)MKK7 was expressed as a protein fused to an N-terminal GST tag (GST-MKK7); made in house
- run-description: ELISA GADD45β/MKK7 competition assay
- Format: binding
- run-conditions: Table S3; read-out: IC50 (ELISA)
Where a SMILES comes first, the peptide text is derived from it. [ ]: non-standard residue; d: D form. The star is where a group is joined. ClZ = O=C(OCc1ccccc1Cl)*; Cbz = O=C(OCc1ccccc1)*
result-type: IC50

Problem: What IC50 value was documented for this compound, COC(=O)C[C@@H](NC(=O)[C@@H](Cc1ccc(O)cc1)NC(=O)OCc1ccccc1)C(=O)N[C@H](Cc1c[nH]cn1)C(=O)N[C@H](Cc1ccccc1)C(N)=O [z-YD(O-methyl)HF-NH2] (Cbz-[dY][dD](OMe)[dH][dF]-NH2) ?
Result: > 10 nM

Problem: What IC50 value was documented for this compound, NC(=O)[C@@H](Cc1ccccc1)NC(=O)[C@@H](Cc1c[nH]cn1)NC(=O)[C@@H](CC(=O)O)NC(=O)[C@@H](Cc1ccc(O)cc1)NC(=O)OCC1c2ccccc2-c2ccccc21 [Fmoc-YDHF-NH2] ?
Result: < 10 nM

Problem: What IC50 value was documented for this compound, CC(=O)N[C@H](Cc1ccc(O)cc1)C(=O)N[C@H](CCC(=O)O)C(=O)N[C@H](CCCNC(=N)N)C(=O)N[C@H](Cc1ccccc1)C(=O)N[C@H](CCCCNC(=O)OCc1ccccc1)C(N)=O [Ac-YERFK(εZ)-NH2] (Ac-[dY][dE][dR][dF][dK](Cbz)-NH2) ?
Result: > 10 nM

Problem: What IC50 value was documented for this compound, NC(=O)CC[C@@H](NC(=O)[C@@H](Cc1c[nH]cn1)NC(=O)[C@@H](CC(=O)O)NC(=O)[C@@H](Cc1ccc(O)cc1)NC(=O)OCc1ccccc1Cl)C(N)=O [2CI-z-YDHQ-NH2] (ClZ-[dY][dD][dH][dQ]-NH2) ?
Result: > 10 nM

Problem: What IC50 value was documented for this compound, COC(=O)C[C@@H](NC(=O)[C@@H](Cc1ccc(O)cc1)NC(=O)OCc1ccccc1)C(=O)N[C@H](Cc1c[nH]cn1)C(=O)N[C@H](CCC(N)=O)C(N)=O [z-YD(O-methyl)HQ-NH2] (Cbz-[dY][dD](OMe)[dH][dQ]-NH2) ?
Result: > 10 nM

Problem: What IC50 value was documented for this compound, CC(=O)N[C@H](Cc1ccc(O)cc1)C(=O)N[C@H](CC(=O)O)C(=O)N[C@H](Cc1c[nH]cn1)C(=O)N[C@H](Cc1ccccc1)C(=O)N[C@H](CCCCNC(=O)OCc1ccccc1)C(N)=O [Ac-YDHFK(εZ)-NH2] (Ac-[dY][dD][dH][dF][dK](Cbz)-NH2) ?
Result: > 10 nM

Problem: What IC50 value was documented for this compound, N=C(N)NCCC[C@@H](NC(=O)[C@@H](CCC(=O)O)NC(=O)[C@@H](Cc1ccc(O)cc1)NC(=O)OCC1c2ccccc2-c2ccccc21)C(=O)N[C@H](Cc1ccccc1)C(N)=O [Fmoc-YERF-NH2] ?
Result: < 10 nM

Problem: What IC50 value was documented for this compound, CCCCCCCCCCCCCC(=O)N[C@H](Cc1ccc(O)cc1)C(=O)N[C@H](CCC(=O)O)C(=O)N[C@H](CCCNC(=N)N)C(=O)N[C@H](Cc1ccccc1)C(N)=O [Myr-YERF-NH2] ?
Result: > 10 nM

Problem: What IC50 value was documented for this compound, N=C(N)NCCC[C@@H](NC(=O)[C@@H](CCC(=O)O)NC(=O)[C@@H](Cc1ccc(O)cc1)NC(=O)OCc1ccccc1Cl)C(=O)N[C@H](Cc1ccccc1)C(N)=O [2CI-z-YERF-NH2] (ClZ-[dY][dE][dR][dF]-NH2) ?
Result: > 10 nM

Values from paper PMC4197335
